- Method: growth inhibitors of H69AR lung tumor, primary screen, human, duplicate replicates (AID 580);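 note: 100% = mean luminescence of untreated wells and 0% = no signal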
- Condition context: H69AR lung tumor cells viability, ATP luminescence, 72 h; at 10 µM; hits give low values
In this section we review reported viability values for a set of compounds.
Give the value in % but do not write % after it.

Please review the following examples before continuing.
Compound | viability / %
Cc1ccccc1-c1nc(CN2CCC(C(=O)NCc3cccnc3)CC2)c(C)o1 | 87.1
CC(COc1ccccc1)NC(C)C(O)c1ccc(O)cc1 (configuration not stated) | 88.6
Cc1nnc(N2C(=O)c3oc4ccccc4c(=O)c3C2c2ccco2)s1 (configuration not stated) | 95.2
CCOc1cccc(/C(O)=C2/C(=O)C(=O)N(CCN3CCOCC3)C2c2cccnc2)c1 (configuration not stated) | 103
CCOc1ccc(C(=O)OCc2nnc(-c3cccs3)o2)cc1OC | 99.9
Nc1nonc1N1CCCCC1 | 99.1
Cc1cccc(C)c1NC(=O)CC(NCc1ccco1)C(=O)O (configuration not stated) | 109
Cc1cccc(-n2c(Cc3cc(=O)[nH]c(=O)[nH]3)nnc2SCC(=O)NCc2ccco2)c1 | 111

Prompt: Consider the compound shown here: CC(C)(C)OC(=O)NC(CCNC=C1C(=O)OC(C)(C)OC1=O)C(=O)O (configuration not stated) What is its recorded viability?
Completion: 101

Prompt: What measured viability goes with COCCCNC(=O)C(Cc1ccccc1)NS(=O)(=O)c1ccc2c(c1)c(=O)n(C)c(=O)n2C (configuration not stated) ?
Completion: 89.2

Prompt: Would you mind telling me what viability value was observed for CCC1(C)Cc2c(C#N)c(N)n(-c3ccccc3)c(=O)c2CO1 (configuration not stated) ?
Completion: 109

Prompt: // lookup viability for `Cc1ccc(Cn2c(C(=O)NCCCN3CCOCC3)cc3sccc32)cc1`
Completion: 77.6

Prompt: So what's the measured viability for this one? COC(=O)c1ccccc1NC(=O)CC(NCc1ccccc1)C(=O)O (configuration not stated)
Completion: 104

Prompt: What does the record list as viability for `c1cncc(-c2nnc3sc(-c4ccco4)nn23)c1` ?
Completion: 91.5

Prompt: Can you look up the measured viability of `CCN1CCN(S(=O)(=O)c2ccc(S(=O)(=O)N(CC)Cc3ccccc3)cc2)CC1` for me?
Completion: 91.9
